test system: HaCaT (human keratinocyte cell line); experiment: Cytotoxicity MTT assay, HaCaT; type: cell-based; settings: Homo sapiens, HaCaT, 24 h, read-out: IC50 HaCaT, MTT, 24 h treatment
Property name: IC50

**Q:** Identify the reported IC50 for the following entry. CCCCCCCOC(=O)c1cc(O)ccc1O
**A:** ~70 µM

**Q:** Identify the reported IC50 for the following entry. CCCCCCCOC(=O)c1ccc(O)c(O)c1
**A:** ~70 µM

**Q:** Identify the reported IC50 for the following entry. CCCCCCCOC(=O)c1ccc(O)cc1O
**A:** ~70 µM

###

For each record, write down the corresponding chromatographic logP.
assay: Partition coefficient log Po/w by HPLC (OECD 117); assay type: physicochemical; details: HPLC method, OECD 117, methanol:water 3:1
Reply with the value as a number alone.

**Q:** Identify the reported chromatographic logP for the following entry. CCOC(=O)c1ccc(O)c(O)c1
**A:** 1.7

**Q:** Identify the reported chromatographic logP for the following entry. CCCCCCCCCCCCOC(=O)c1ccc(O)c(O)c1
**A:** 6.9

**Q:** Identify the reported chromatographic logP for the following entry. CC(C)OC(=O)c1cc(O)ccc1O
**A:** 2.2

**Q:** Identify the reported chromatographic logP for the following entry. O=C(O)c1ccc(O)cc1O [2,4 DHB acid, 2,4 dihydroxybenzoic acid, reference compound]
**A:** 2.6

**Q:** Identify the reported chromatographic logP for the following entry. CCCCCCCCCOC(=O)c1cc(O)ccc1O
**A:** 5.7

**Q:** Identify the reported chromatographic logP for the following entry. O=C(OCCc1ccccc1)c1ccc(O)c(O)c1
**A:** 2.4

**Q:** Identify the reported chromatographic logP for the following entry. CCCCCCCOC(=O)c1cc(O)ccc1O
**A:** 5

**Q:** Identify the reported chromatographic logP for the following entry. CCCCCCCCCOC(=O)c1ccc(O)cc1O
**A:** 6.2

**Q:** Identify the reported chromatographic logP for the following entry. CCCCCCCCOC(=O)c1cc(O)ccc1O
**A:** 5.2

###

System: X. citri subsp. citri strain 306 (IBSBF 1594)
Assay: MIC by Resazurin Microtiter Assay (REMA)
Assay type: cell-based, Xanthomonas citri subsp. citri
Conditions: Xanthomonas citri, 12 h, REMA, NYG medium, 29 °C, read-out: MIC in μM
Description: The antibacterial potential of carboxylic acids and their esters were compared to copper oxychloride (a commercial active often used to combat citrus canker). Minimal inhibitory concentration (MIC) values were determined by REMA assay, which measures cellular respiratory activity. The antibacterial activity of alkyl dihydroxybenzoates and the determination of minimum inhibition concentration (MIC) were performed by the fluorimetric method Resazurin Microtiter Assay (REMA) with some modifications. […]
For each record, write down the corresponding MIC.

**Q:** Identify the reported MIC for the following entry. CCCCCCCOC(=O)c1cc(O)ccc1O [Compound 16]
**A:** 80 µM

**Q:** Identify the reported MIC for the following entry. CCCCOC(=O)c1cc(O)ccc1O [Compound 14]
**A:** > 475 µM

**Q:** Identify the reported MIC for the following entry. CC(C)OC(=O)c1ccc(O)cc1O [Compound 9]
**A:** > 510 µM

**Q:** Identify the reported MIC for the following entry. CCCCCCCCCOC(=O)c1ccc(O)cc1O [Compound 6]
**A:** > 356 µM

**Q:** Identify the reported MIC for the following entry. CCCCCCCCOC(=O)c1ccc(O)c(O)c1 [Compound 29]
**A:** 117 µM

**Q:** Identify the reported MIC for the following entry. CC(C)OC(=O)c1ccc(O)c(O)c1 [Compound 33]
**A:** > 510 µM

**Q:** Identify the reported MIC for the following entry. CCCCOC(=O)c1ccc(O)c(O)c1 [Compound 26]
**A:** > 475 µM

**Q:** Identify the reported MIC for the following entry. CCCCCCCCCOC(=O)c1cc(O)ccc1O [Compound 18]
**A:** > 357 µM

**Q:** Identify the reported MIC for the following entry. CCOC(=O)c1ccc(O)c(O)c1 [Compound 25]
**A:** > 549 µM

**Q:** Identify the reported MIC for the following entry. CCCCCCCCCCCCOC(=O)c1cc(O)ccc1O [Compound 20]
**A:** > 310 µM

**Q:** Identify the reported MIC for the following entry. CCCCCCCOC(=O)c1ccc(O)c(O)c1 [Compound 28]
**A:** 88 µM

**Q:** Identify the reported MIC for the following entry. O=C(OC1CCCC1)c1cc(O)ccc1O [Compound 22]
**A:** 375 µM

**Q:** Identify the reported MIC for the following entry. CCCCOC(=O)c1ccc(O)cc1O [Compound 2]
**A:** 189 µM

**Q:** Identify the reported MIC for the following entry. O=C(O)c1cc(O)ccc1O [2,5 DHB acid, 2,5 dihydroxybenzoic acid, reference compound]
**A:** > 648 µM

**Q:** Identify the reported MIC for the following entry. CCCCCCCCCCCCOC(=O)c1ccc(O)cc1O [Compound 8, dodecyl 2,4 dihydroxybenzoate]
**A:** > 310 µM

**Q:** Identify the reported MIC for the following entry. CCCCCCCCCCCCOC(=O)c1ccc(O)c(O)c1 [Compound 32]
**A:** > 310 µM

**Q:** Identify the reported MIC for the following entry. CC(C)OC(=O)c1cc(O)ccc1O [Compound 21]
**A:** > 510 µM

**Q:** Identify the reported MIC for the following entry. CCOC(=O)c1ccc(O)cc1O [Compound 1]
**A:** > 548 µM

**Q:** Identify the reported MIC for the following entry. CCCCCCCCCOC(=O)c1ccc(O)c(O)c1 [Compound 30]
**A:** 95 µM

**Q:** Identify the reported MIC for the following entry. CCCCCCOC(=O)c1ccc(O)c(O)c1 [Compound 27]
**A:** 186 µM

**Q:** Identify the reported MIC for the following entry. O=C(OC1CCCC1)c1ccc(O)cc1O [Compound 10]
**A:** > 450 µM
